Target: T1, human PTK7 protein (extracellular sequence of human PTK7 with C-terminal 6×His tag) (human, UniProt Q13308 31-704)
T1 construct: extracellular domain; Expressed transiently in HEK293 cells; also called human PTK7-His; human PTK7-His protein
T1 sequence: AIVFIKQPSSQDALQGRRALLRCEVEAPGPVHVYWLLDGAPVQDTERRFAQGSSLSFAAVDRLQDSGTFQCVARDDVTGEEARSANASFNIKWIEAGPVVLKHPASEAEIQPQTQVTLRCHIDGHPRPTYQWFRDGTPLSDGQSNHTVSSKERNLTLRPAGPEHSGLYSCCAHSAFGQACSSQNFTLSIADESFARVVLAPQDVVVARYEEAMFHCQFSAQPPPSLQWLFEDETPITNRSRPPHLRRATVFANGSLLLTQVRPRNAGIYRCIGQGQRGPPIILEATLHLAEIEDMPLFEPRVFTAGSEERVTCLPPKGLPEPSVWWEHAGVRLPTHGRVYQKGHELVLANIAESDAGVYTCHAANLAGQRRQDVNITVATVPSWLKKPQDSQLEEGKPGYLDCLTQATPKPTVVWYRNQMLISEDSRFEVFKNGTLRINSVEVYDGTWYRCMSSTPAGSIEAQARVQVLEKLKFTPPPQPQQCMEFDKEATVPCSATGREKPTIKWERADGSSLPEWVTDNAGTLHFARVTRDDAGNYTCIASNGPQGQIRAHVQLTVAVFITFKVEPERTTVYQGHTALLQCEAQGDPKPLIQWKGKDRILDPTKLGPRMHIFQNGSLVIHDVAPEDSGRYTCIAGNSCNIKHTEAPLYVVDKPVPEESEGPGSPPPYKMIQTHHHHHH
Assay: BLI (ForteBio), antibody on Protein A sensor, human PTK7-His 200-3.125 nM, 1:1 global fit
Documented Kd across a set of binders
Value expressed in nM; do not type the unit.

Here's what some known entries look like.
[
  {
    "BINDER": "4E12HZ (anti-human PTK7 humanized antibody) (antibody, human IgG1, kappa, V domains shown, Human IgG1 heavy chain constant region and human Kappa light chain constant region) VH: QVQLVQSGAEVKRPGASVKVSCKTSGYTFTDYAMHWVRQAPGKGLEWIGVISTYYGNVSYNQKFKGRVTMTRDTSTSTVYMELSSLTSEDTAIYYCARGFAYWGQGTLVTVSS VL: DIVITQTELSLPVTPGERASISCRSSKSLQKKDGKTYLNWFLQKPGQSPQLLIYLMSTRASGVSDRFSGSGSGTDFTLKISRVEAEDVGVYYCQQLVEYPFTFGQGTKLEIKR",
    "READOUT_VALUE": 22
  },
  {
    "BINDER": "Hu24 (PTK7 control antibody, taken from Hu24 in the Patent CN201580030255) (antibody) chain 1: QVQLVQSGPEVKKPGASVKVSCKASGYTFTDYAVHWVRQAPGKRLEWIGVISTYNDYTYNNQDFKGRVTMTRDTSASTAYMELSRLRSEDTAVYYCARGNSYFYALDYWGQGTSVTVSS chain 2: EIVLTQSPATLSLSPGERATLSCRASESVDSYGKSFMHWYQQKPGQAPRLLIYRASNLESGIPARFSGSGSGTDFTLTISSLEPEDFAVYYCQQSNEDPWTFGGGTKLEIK",
    "READOUT_VALUE": 4.96
  }
]

Turning to the following binder.
Memo: 64A10HZ (anti-human PTK7 humanized antibody) (antibody, human IgG1, kappa, V domains shown, Human IgG1 heavy chain constant region and human Kappa light chain constant region; expressed in CHO-S cells) VH: QVQLQESGPGLVKPSETLSLTCTVSGFSLTSYGVYWVRQPPGKGPEWLGVIWTSGNTNYNPSLKSRLTISKDNSKNQVSLKLSSVTAADTAVYYCVKHDGGNYVGVMNYWGQGTLVTVSS VL: EIVMTQSPDFQSVTPKEKVTITCRASQSISDYLHWYQQKPDQSPKLLIKYASQSISGVPSRFSGSGSGSDFTLTINSLEAEDAATYYCQNGHSFPPTFGQGTKLEIKR , reported Kd: 10.9
